Known IC90, Myostatin SMAD RGA of a selection of binders
study-system: ActRIIA and ActRIIB (on TGFB/SMAD SBE Reporter HEK293 cells) (human)
Sequence (chain, as listed by the source, chain 1 of 2): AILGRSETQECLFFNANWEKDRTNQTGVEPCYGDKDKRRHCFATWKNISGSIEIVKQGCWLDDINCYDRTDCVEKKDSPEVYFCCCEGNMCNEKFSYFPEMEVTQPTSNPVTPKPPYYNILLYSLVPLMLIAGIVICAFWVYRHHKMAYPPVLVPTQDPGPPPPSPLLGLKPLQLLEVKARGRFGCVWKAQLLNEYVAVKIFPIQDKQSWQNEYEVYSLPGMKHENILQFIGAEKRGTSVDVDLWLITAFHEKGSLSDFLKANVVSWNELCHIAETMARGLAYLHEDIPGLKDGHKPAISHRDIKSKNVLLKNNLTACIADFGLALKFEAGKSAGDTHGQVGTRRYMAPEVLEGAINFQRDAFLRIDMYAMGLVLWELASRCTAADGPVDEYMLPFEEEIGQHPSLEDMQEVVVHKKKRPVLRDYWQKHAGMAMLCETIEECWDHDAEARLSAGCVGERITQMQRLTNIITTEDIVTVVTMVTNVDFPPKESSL
Sequence (chain, as listed by the source, chain 2 of 2): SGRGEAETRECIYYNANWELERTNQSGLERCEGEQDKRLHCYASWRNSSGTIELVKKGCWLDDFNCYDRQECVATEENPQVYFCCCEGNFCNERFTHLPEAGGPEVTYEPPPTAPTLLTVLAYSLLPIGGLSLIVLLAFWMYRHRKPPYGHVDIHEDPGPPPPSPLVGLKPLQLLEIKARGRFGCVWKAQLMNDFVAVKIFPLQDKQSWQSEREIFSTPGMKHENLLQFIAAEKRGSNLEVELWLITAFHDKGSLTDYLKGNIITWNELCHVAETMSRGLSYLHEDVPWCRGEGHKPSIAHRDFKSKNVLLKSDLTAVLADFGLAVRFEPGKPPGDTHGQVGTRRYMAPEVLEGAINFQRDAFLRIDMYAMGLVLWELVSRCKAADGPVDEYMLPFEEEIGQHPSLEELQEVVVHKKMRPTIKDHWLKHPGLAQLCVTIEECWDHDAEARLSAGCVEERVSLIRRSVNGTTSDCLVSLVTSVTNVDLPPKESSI
experiment-notes: cell-based or functional assay
# unit: nM | format: bare number

binder="Antibody Ochsamaulsalat (antibody, V domains shown, full-length IgG) VH: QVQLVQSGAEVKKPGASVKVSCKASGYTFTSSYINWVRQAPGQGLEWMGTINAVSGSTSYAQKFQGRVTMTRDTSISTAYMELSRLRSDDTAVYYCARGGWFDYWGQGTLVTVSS VL: QSALTQPASVSGSPGQSITISCTGTSSDVGSRNYVNWYQQHPGKAPKLMIYGVSKRESGVSNRFSGSKSGNTASLTISGLQAEDEADYYCGTFAGGDYYGVFGGGTKLTVL" assay_value=5.59

Next, consider the following binder.
What value of IC90, Myostatin SMAD RGA has been recorded for this entry: Antibody Hasaschlegel (antibody, V domains shown, full-length IgG) VH: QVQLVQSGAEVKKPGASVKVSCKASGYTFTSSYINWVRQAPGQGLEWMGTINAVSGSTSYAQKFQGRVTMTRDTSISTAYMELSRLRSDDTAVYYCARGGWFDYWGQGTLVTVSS VL: QSALTQPASVSGSPGQSITISCTGTSSDVGSYDYVNWYQQHPGKAPKLMIHGVSKRESGVSNRFSGSKSGNTASLTISGLQAEDEADYYCGTFAGGSYYGVFGGGTKLTVL 6.59
